test: qHTS Assay for Lipid Storage Modulators in Drosophila S3 Cells; conditions: BODIPY lipid droplet fluorescence, 18-24 h, cells fed with added oleic acid; series mostly up to 46.1 µM
About 2,100 (0.66%) of roughly 320,000 compounds were called active. Inconclusive results (about 53%) are left out. The call rests on the fitted dose curve; in most records, active means well fitted inhibition curve with a large enough effect in the signal ratio, with a control signal flat (not every such curve was filed as active); inconclusive means small, poorly fitted or top-dose-only effect, or effect the other way, or a change in a side signal; inactive means flat fitted curve, though single readings scatter; the % refers to the signal ratio. The entries come from a sample that favours actives as a whole.
Pick one: active, inactive

Would you please look over these solved cases?
CSc1ccc(-c2nc(CSCC(=O)NCCCN3CCOCC3)c(C)o2)cc1	inactive
Cc1cc(-n2cnnn2)cc(C)c1S(=O)(=O)N(C)c1ccccc1	active
CC1CCCC(C)N1C(=O)CSc1nnc(NC(=O)c2cccs2)s1 (stereo not drawn)	inactive
C=CCNC(=O)c1ccc(Sc2ccc(C)cc2)c([N+](=O)[O-])c1	inactive
CCOc1ccc(/C=N/n2c(SC)nnc(C(C)(C)C)c2=O)cc1	inactive
COc1cccc(Oc2cc(Cl)nc(N)n2)c1	inactive
CC1=C(C(=O)N2CCc3ccccc32)C2(CCC(C)CC2)OC1=O (stereo not drawn)	inactive
COCCN(C(=O)C(=O)NC1CCCC1)C(C(=O)NC1CCCC1)c1ccccc1F (stereo not drawn)	inactive
Cc1ccc(NC(=O)CCNS(=O)(=O)c2ccc3[nH]c(=O)oc3c2)c(Cl)c1	inactive
CC(C)NC(=O)[C@]1(C)CCC[C@@]2(C)C3CC[C@@]4(C)C[C@]3(CCC21)CC4=O (stereo partly drawn)	inactive

Query string: For Cc1cc(C)c(S(=O)(=O)N(C)c2ccccc2)c(C)c1 , which call appears in the assay record?
Result string: inactive

Query string: Could you kindly confirm the outcome this assay logged for OC(CNCc1cccnc1)COc1ccc2ccccc2c1 (stereo not drawn) ?
Result string: inactive

Query string: What is the recorded call for this compound in the test? O=C(Nc1ccc(Br)cc1)C1CCCN(C2=NS(=O)(=O)c3ccccc32)C1 (stereo not drawn)
Result string: inactive

Query string: Please let me know the test result on file for Cc1ccc(N2C(=O)N3[C@H](c4cccc(C)c4)[C@@H]4C(=O)N(Cc5ccccc5)C(=O)[C@@H]4[C@]3(C)C2=O)cc1 .
Result string: inactive

Query string: // param item: CN(Cc1ccc2c(c1)OCO2)C(=O)c1cc(-c2ccccc2)c(N2CCOCC2)s1 ; yields the recorded call
Result string: inactive

Query string: Hello, I am checking results. What call was entered for Cc1ncoc1C(=O)N1CCCC(C(=O)c2cccc3ccccc23)C1 (stereo not drawn) ?
Result string: inactive

Query string: Assay outcome for CC(C)(C)CNC(=O)[C@]1(C)CCC[C@@]2(C)C3CC[C@@]4(C)C[C@]3(CCC21)CC4=O (stereo partly drawn) : what was it?
Result string: inactive

Query string: Fill in: this test's call for Cc1cccc(NC(=O)CSc2nnc(CNC(=O)c3ccco3)o2)c1 is ___
Result string: inactive

---

assay: qHTS Assay for Lipid Storage Modulators in Drosophila S3 Cells; conditions: BODIPY lipid droplet fluorescence, 18-24 h, cells fed with added oleic acid; series mostly up to 46.1 µM
Among all 320,000 compounds or so, about 2,100 (0.66%) were called active. Another 53% or so got no clear call; they are omitted. The call rests on the fitted dose curve; in most records, active means well fitted inhibition curve with a large enough effect in the signal ratio, with a control signal flat (not every such curve was filed as active); inconclusive means small, poorly fitted or top-dose-only effect, or effect the other way, or a change in a side signal; inactive means flat fitted curve, though single readings scatter; the % refers to the signal ratio. Many of the other results were omitted from the sample, so actives are more common in it than they were.
Respond only with the outcome that fits, drawn from 1 (yes) (active), 0 (no) (inactive)

Please review the entries below; each comes with its answer.
Cc1ccc2[nH]c(=O)c(CN(CCCN(C)C)C(=S)NCCc3ccccc3)cc2c1	0 (no)
CCOC(=O)CN1C(=O)SC(Nc2ccc(C)cc2)C1=O (configuration not stated)	0 (no)
O=C(Nc1ccncc1)c1sc2ccccc2c1Cl	0 (no)
Cc1nn(CC(=O)OCC(=O)Nc2c(C(C)C)cccc2C(C)C)c(C)c1[N+](=O)[O-]	0 (no)
CCOC(=O)c1[nH]ncc1CN1CCCC(C(=O)c2ccc(SC)cc2)C1 (configuration not stated)	0 (no)
Cc1ccc(S(=O)(=O)CC(=O)Nc2ncc([N+](=O)[O-])s2)cc1	0 (no)
CC(C)(C)NCC(O)COc1c(F)cc(Br)cc1F (configuration not stated)	1 (yes)
CSc1ccccc1OCc1cc(C(=O)NCCN2CCCc3ccccc32)no1	0 (no)
CSc1ccc(/C=C/C(=O)c2ccc(NC(C)=O)cc2)cc1	0 (no)
Cc1cc(=O)oc2cc(Oc3ccc(C(N)=O)cc3[N+](=O)[O-])ccc12	0 (no)

Query string: Assay result, entry O=C(N/N=C/c1ccc(-c2cccc(C(F)(F)F)c2)o1)c1cccc(F)c1 — outcome?
Result string: 0 (no)

Query string: For this compound, state the assay outcome: O=C(CCN1C(=O)S/C(=C\c2ccccc2)C1=O)NC1CCS(=O)(=O)C1 (configuration not stated)
Result string: 0 (no)

Query string: Name the outcome recorded for Cc1cc(=O)oc2cc(Oc3ccc([N+](=O)[O-])cc3[N+](=O)[O-])ccc12 in the assay.
Result string: 1 (yes)

Query string: Could you please tell me the result logged for NC(=O)CSc1cn(CCNC(=O)c2cccs2)c2ccccc12 in this assay?
Result string: 0 (no)

Query string: Record lookup: outcome of this test for CCO[C@@H]1OC(C(=O)NC2CC2)=C[C@H](c2csc3ccccc23)[C@H]1CCCO ?
Result string: 0 (no)

Query string: Hello, I am checking results. What call was entered for O=C(CN1C(=O)/C(=C/c2ccc(F)cc2)SC1=S)NC1CCS(=O)(=O)C1 (configuration not stated) ?
Result string: 0 (no)

Query string: Test call, this compound: Cc1ccnc(NC(=O)c2ccc(Cl)s2)c1
Result string: 0 (no)

Query string: What is the recorded call for this compound in the test? CCCc1nnc(NC(=O)CCS(=O)(=O)c2ccccc2)s1
Result string: 1 (yes)

Query string: State the result this test recorded for O=C(c1ccccc1)N1CN2CN(C(=O)c3ccccc3)CC([N+](=O)[O-])(C2)C1 .
Result string: 0 (no)

Query string: Kindly provide the recorded test outcome for the following compound: COc1cccc(-c2cc(C(=O)N/N=C/c3ccco3)c3ccccc3n2)c1
Result string: 0 (no)

Query string: For this compound, state the assay outcome: Cc1ccc(CC(=O)Nc2ncc([N+](=O)[O-])s2)cc1
Result string: 0 (no)

Query string: Check the results log: what was the call for O=C(c1cc2n(n1)C(C(F)(F)F)CC(c1ccc(Cl)cc1)N2)N1CCCC1 (configuration not stated) ?
Result string: 0 (no)

Query string: Each compound tested received a call. Report the one for Cc1nc(C)c(C(=O)OCC(=O)NCc2ccccc2)s1 .
Result string: 1 (yes)

Query string: Name the outcome recorded for Cc1sc2ncnc(SCC(=O)N3CCOCC3)c2c1C in the assay.
Result string: 0 (no)

Query string: Test call, this compound: Cc1cccc(C)c1OCC(O)CNC(C)(C)C (configuration not stated)
Result string: 0 (no)

Query string: Assay result, entry Cn1c(SCC(=O)Nc2ccc3nc(SCC(=O)NC4CC4)sc3c2)nnc1-c1ccccc1 — outcome?
Result string: 0 (no)

Query string: # lookup: test call for O=C(CCS(=O)(=O)c1ccccc1)Nc1ncc([N+](=O)[O-])s1
Result string: 1 (yes)

Query string: Please let me know the test result on file for COc1cccc(/C=C2\SC(=O)N(CC(=O)NC3CCS(=O)(=O)C3)C2=O)c1 (configuration not stated) .
Result string: 0 (no)

Query string: What is the recorded call for this compound in the test? C[C@H](NC(=O)c1nc[nH]c1C(=O)N[C@@H](Cc1ccccc1)C(=O)OCc1ccccc1)c1ccccc1
Result string: 0 (no)

Query string: What is the recorded call for this compound in the test? Cc1ccc(S(=O)(=O)CCN2CCN(c3ccccn3)CC2)cc1
Result string: 0 (no)

Query string: Kindly provide the recorded test outcome for the following compound: COc1ccc(/C=C2\SC(=S)N(CC(=O)NC3CCS(=O)(=O)C3)C2=O)cc1 (configuration not stated)
Result string: 0 (no)

Query string: Status in this test for COc1ccc(-c2cc(C(=O)Nc3nc4ccccc4s3)c3ccccc3n2)cc1OC ?
Result string: 0 (no)
